- assay.name: qHTS assay to identify small molecule antagonists of the thyroid receptor (TR) signaling pathway - cell viability counter screen (AID 743064); note: nearly all actives have a fitted effect of over 50% in size
- condition.description: GH3.TRE-Luc viability, CellTiter-Fluor, 24 h; series mostly up to 70.3 µM
Inconclusive results are not listed. The source made the active and inactive calls. Calls come from the whole dose curve; as a rule, active = well fitted cell-killing curve with a large enough effect in the repeat runs; inconclusive = weak or mixed curves, or effect the other way; inactive = no such curve, though single readings can be large or run the other way.
Would you mind answering with one of these outcomes? active, inactive

Query :: For COc1ccc(C(=O)c2c(C)n(CCN3CCOCC3)c3ccccc23)cc1 , which call appears in the assay record?
Result :: inactive

Query :: For C[C@H]1[C@@H]2Cc3ccc(O)cc3[C@@]1(C)CCN2C , which call appears in the assay record?
Result :: inactive

* * *

- test.target: Cytochrome P450 1A2 (Homo sapiens)
- assay.name: Cytochrome P450 Family 1 Subfamily A Member 2 (CYP1A2) small molecule antagonists: luciferase reporter qHTS assay (AID 1671199); note: nearly all actives have a fitted effect of over 50% in size
- condition.description: P450-Glo CYP1A2 enzyme, luciferin luminescence, 1 h; series mostly up to 115 µM
Records with an inconclusive call do not appear. The source made the active and inactive calls. Calls follow the shape of the dose curve; as a rule, active = well fitted inhibition curve with a large enough effect in the repeat runs; inconclusive = weak or mixed curves; inactive = no such curve, though single readings can be large or run the other way.
Would you mind answering with one of these outcomes? yes for active, no for inactive

Use these answered entries as a reference point.
Query :: For CCCCC(CC)COC(=O)c1c(Br)c(Br)c(Br)c(Br)c1C(=O)OCC(CC)CCCC (stereo not drawn) , which call appears in the assay record?
Result :: no

Query :: For N#CC1(N=NC2(C#N)CCCCC2)CCCCC1 , which call appears in the assay record?
Result :: no

Query :: For C1CCNCC1 , which call appears in the assay record?
Result :: yes

Further cases:
Query :: For O=C(N[C@H]1CN2CCC1CC2)c1ccc2c(c1)OCCO2 , which call appears in the assay record?
Result :: no

Query :: For COc1cc(C[C@@H](C)N)c(OC)cc1Br , which call appears in the assay record?
Result :: yes

Query :: For O=C1CC[C@@]2(O)[C@H]3Cc4ccc(O)c5c4[C@@]2(CCN3CC2CC2)[C@H]1O5 , which call appears in the assay record?
Result :: no

Query :: For CCCC[P+](CC)(CCCC)CCCC (tested in a mixture with another compound) , which call appears in the assay record?
Result :: no

Query :: For CCCCC(CC)CO[N+](=O)[O-] (stereo not drawn) , which call appears in the assay record?
Result :: no

Query :: For C=CCSSCC=C , which call appears in the assay record?
Result :: yes

Query :: For CC[N+]1(CCOC(=O)C(O)(c2ccccc2)c2ccccc2)CCCCC1 , which call appears in the assay record?
Result :: no

Query :: For CCCBr , which call appears in the assay record?
Result :: no

Query :: For C=C(C)C(=O)OCCCCOC(=O)C(=C)C , which call appears in the assay record?
Result :: yes

Query :: For Nc1ccc2c(c1)Cc1ccccc1-2 , which call appears in the assay record?
Result :: yes

* * *

- assay.name: qHTS assay for small molecules that induce genotoxicity in human embryonic kidney cells expressing luciferase-tagged ATAD5 - cell viability (AID 651634); note: nearly all actives have a fitted effect of over 25% in size
- condition.description: HEK293T ATAD5-luc cells viability, CellTiter-Fluor, 15.5 h; series mostly up to 83.3 µM
Records with an inconclusive call do not appear. The source made the active and inactive calls. Calls come from the whole dose curve.
Would you mind answering with one of these outcomes? T (active), F (inactive)

Use these answered entries as a reference point.
Query :: For CCCBr , which call appears in the assay record?
Result :: F

Query :: For C=C(C)C(=O)OCCCCOC(=O)C(=C)C , which call appears in the assay record?
Result :: F

Query :: For CCCCC#N , which call appears in the assay record?
Result :: F

Further cases:
Query :: For CCCCC1C(=O)NC(=O)N(C2CCCCC2)C1=O (stereo not given) , which call appears in the assay record?
Result :: F

Query :: For CCOP(=S)(S)OCC , which call appears in the assay record?
Result :: F

Query :: For O=C1CC[C@@]2(O)[C@H]3Cc4ccc(O)c5c4[C@@]2(CCN3CC2CC2)[C@H]1O5 , which call appears in the assay record?
Result :: F

Query :: For CC(C)OC(=O)Cc1ccccc1 , which call appears in the assay record?
Result :: F

Query :: For CCC1(C2=NCCN2)Cc2ccccc2O1 (stereo not given) , which call appears in the assay record?
Result :: F

Query :: For CCOP(=S)(OCC)SCSc1cc(Cl)ccc1Cl , which call appears in the assay record?
Result :: F

Query :: For CC(C)c1ccc(NC(=O)N(C)C)cc1 , which call appears in the assay record?
Result :: F

Query :: For CCCCCBr , which call appears in the assay record?
Result :: F

Query :: For O=C(O)C(Cl)(Cl)Br , which call appears in the assay record?
Result :: F

Query :: For CN1CC[C@]23c4c5ccc(O)c4O[C@H]2[C@@H](O)CC[C@H]3[C@H]1C5 , which call appears in the assay record?
Result :: F

Query :: For COc1ccc2c(c1OC)C(=O)O[C@H]2[C@@H]1c2cc3c(cc2CCN1C)OCO3 , which call appears in the assay record?
Result :: F

Data credit: PubChem BioAssay (Tox21)
